Data provenance: the supplement of paper PMC9233669

# Tested on: biotinyl-Trp-oxazolone
# Test Protocol: self-aminoacylation, catalytic enhancement (BWO) (fold over background); higher = more active; k-Seq, kA / k0A0; sequences stand for … in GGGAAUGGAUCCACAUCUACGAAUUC…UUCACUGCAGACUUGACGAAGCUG
Fewer inactive variants are shown than the library holds.
Observable: self-aminoacylation

> print(dat)
                         construct.sequence  readout.value
1  AUUUACCUAGGUCAUCGGAUG [Fam2.2 aminoacylation ribozyme variant]          0.671
2  CCCCACUUCAUGCAAUCGGUC [Fam1B.1 aminoacylation ribozyme variant]           2.78
3  CUGCCUCAAACAAUCGGUCUG [Fam1A.1 aminoacylation ribozyme variant]           20.9
4  AUUAUCCUAGGUCAUCGGGUG [Fam2.2 aminoacylation ribozyme variant]           9.09
